Reference source: the supplement of paper PMC7877785

# maps each entry to its self-splicing fitness (ln)
assay: self-splicing fitness, log relative to wild type (ln ratio); higher = more splicing; Tetrahymena group I intron in knt gene, E. coli kanamycin selection, DiMSum; sequences stand for … in CUCUCU…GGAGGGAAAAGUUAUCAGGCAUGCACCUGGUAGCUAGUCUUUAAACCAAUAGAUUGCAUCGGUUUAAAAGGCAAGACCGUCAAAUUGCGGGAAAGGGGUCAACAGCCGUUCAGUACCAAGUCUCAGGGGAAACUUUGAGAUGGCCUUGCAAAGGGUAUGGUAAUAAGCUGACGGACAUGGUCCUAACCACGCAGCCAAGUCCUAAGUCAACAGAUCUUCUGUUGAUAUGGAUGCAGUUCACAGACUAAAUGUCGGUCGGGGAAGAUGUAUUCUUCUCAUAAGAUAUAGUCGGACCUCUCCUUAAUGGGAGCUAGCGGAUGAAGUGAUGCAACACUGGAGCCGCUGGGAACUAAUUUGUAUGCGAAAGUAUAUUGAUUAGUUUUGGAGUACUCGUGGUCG; details: 37 °C;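 further: selection with 25 µg/mL kanamycin versus none on LB agar overnight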
Endpoint: self-splicing fitness (ln)

> print(dat)
       monomer.sequence  reported.measurement
1  AGAAAGCAAUAUUACGAGAU                 -1.99
2  UACUAGCAAUAUUACGAGGU                    -2
3  CGAAAGCAAUAUUACGGAUA                    -3
4  CGAAAGCAAUAUUACGUCGA                 -1.51
5  GGACAGCAAUAUUACGUCUG                 -0.31
6  UUGCAGCAAUAUUACGAGCU                 -1.37
7  UCCUAGCAAUAUUACGGCUC                 -1.62
8  AGUCAGCAAUAUUACGCGCA                 0.452
9  ACCAAGCAAUAUUACGCCGU                 -1.66

* * *

assay: self-splicing fitness, log relative to wild type (ln ratio); higher = more splicing; Tetrahymena group I intron in knt gene, E. coli kanamycin selection, DiMSum; sequences stand for … in CUCUCU…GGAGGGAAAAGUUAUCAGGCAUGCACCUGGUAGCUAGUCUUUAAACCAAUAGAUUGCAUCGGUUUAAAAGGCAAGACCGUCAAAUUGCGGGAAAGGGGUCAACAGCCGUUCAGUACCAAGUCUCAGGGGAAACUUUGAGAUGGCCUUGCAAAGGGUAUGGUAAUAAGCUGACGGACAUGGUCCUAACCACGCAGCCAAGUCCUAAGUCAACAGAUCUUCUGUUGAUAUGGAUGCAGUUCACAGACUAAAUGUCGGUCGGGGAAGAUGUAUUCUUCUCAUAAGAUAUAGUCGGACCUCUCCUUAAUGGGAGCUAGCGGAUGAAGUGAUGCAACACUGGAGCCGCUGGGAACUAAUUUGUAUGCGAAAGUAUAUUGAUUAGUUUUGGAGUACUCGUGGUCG; settings: 30 °C
Endpoint: self-splicing fitness (ln)

> print(dat)
        monomer.sequence  reported.measurement
 1  ACACAGCAAUAUUACGAACU                -0.798
 2  ACCAAGCAAUAUUACGCGCA                -0.525
 3  UUUUAGCAAUAUUACGUCAC                 -2.38
 4  GAUCAGCAAUAUUACGACAC                 0.702
 5  UGCCAGCAAUAUUACGGAUC                 -3.04
 6  UAAAAGCAAUAUUACGAGGA                 -2.79
 7  CUAGAGCAAUAUUACGGGAC                  -2.5
 8  AACUAGCAAUAUUACGGUUU                 -3.29
 9  UCUCAGCAAUAUUACGCUAA                 -3.89
10  CAUCAGCAAUAUUACGUAUA                 -1.68
11  AGGAAGCAAUAUUACGGACC                -0.483
12  GUGGAGCAAUAUUACGGUCG                 -4.21
13  CAUUAGCAAUAUUACGCUGA                 -3.13
14  ACCCAGCAAUAUUACGGUUA                -0.324
15  CUCGAGCAAUAUUACGUUAA                 -3.68
16  CAUCAGCAAUAUUACGAGUU                 -4.08
17  CACGAGCAAUAUUACGAUGA                 -3.21
18  AUGCAGCAAUAUUACGAAUA                 -2.68
19  CUCCAGCAAUAUUACGCUCA                 -2.97
20  GAACAGCAAUAUUACGGAGG                 -3.02
21  ACGAAGCAAUAUUACGUAUG                 -1.94
22  UUUCAGCAAUAUUACGGUUU                -0.595
23  UAACAGCAAUAUUACGCAGG                  -2.5
24  UAAUAGCAAUAUUACGUCAA                 -2.33
25  AAAGAGCAAUAUUACGAGCC                 -2.96
26  UUGAAGCAAUAUUACGACGC                -0.722
27  AGUAAGCAAUAUUACGUAGA                 -3.23
28  CAGAAGCAAUAUUACGUUGG                 -2.15
29  CGACAGCAAUAUUACGUUCU                -0.971
30  CAACAGCAAUAUUACGCAUC                  -3.3
31  AUACAGCAAUAUUACGGGUC                  -3.7
32  ACCUAGCAAUAUUACGUUUU                 -2.61
33  UAGUAGCAAUAUUACGACCG                -0.133
34  GCGUAGCAAUAUUACGAUUG                 -2.26
35  GUACAGCAAUAUUACGUGAU                 -2.88
36  AGAAAGCAAUAUUACGAAAG                 -3.93
